- Tested on: UACC-257 melanoma
- experiment: NCI-60 one-dose screen, 48 h (100 = growth as untreated, 0 = no growth, -100 = all killed)
- test-parameters: 10 µM
This is part of a sample that, as a whole, favours compounds with a hit. Of some 83,000 tested, about 20% had one in any assay. Activity calls are given as the source filed them. How the source made its calls: active means growth percent below 10; inactive means the rest.
# reported growth; entries follow
measurement-name: growth

[[record]]
compound = "N#Cc1ccc(S(=O)(=O)Nc2ccc(-c3cnc(N)[nH]3)cc2)cc1"
measurement_name = "growth"
endpoint_value = "98.2% (inactive)"

[[record]]
compound = "COc1ccc(/C=N\\NC(=O)c2ccc3nc(-c4ccc(Br)cc4)[nH]c3c2)cc1"
measurement_name = "growth"
endpoint_value = "38.7% (inactive)"

[[record]]
compound = "NC(=O)N1N=C(c2cc3ccccc3oc2=O)CC1c1cn(-c2ccccc2)nc1-c1ccc(Cl)cc1 (configuration not stated)"
measurement_name = "growth"
endpoint_value = "59.5% (inactive)"

[[record]]
compound = "C=CCn1c(SCC(=O)Nc2cccc(C(=O)/C=C/c3ccccc3Cl)c2)nc2ccccc2c1=O"
measurement_name = "growth"
endpoint_value = "107% (inactive)"

[[record]]
compound = "C=CCn1c(SCC(=O)Nc2cccc(C(=O)/C=C/c3cc(OC)c(OC)c(OC)c3)c2)nc2ccccc2c1=O"
measurement_name = "growth"
endpoint_value = "80.9% (inactive)"

[[record]]
compound = "O=C(/C=C/Nc1ccc(S(=O)(=O)O)cc1)c1ccc(F)cc1"
measurement_name = "growth"
endpoint_value = "101% (inactive)"

[[record]]
compound = "CCCC(=O)NC(c1cccnc1)c1cc(C(C)=O)c2cccnc2c1O (configuration not stated)"
measurement_name = "growth"
endpoint_value = "42.4% (inactive)"

[[record]]
compound = "CCNC(=O)Oc1ccc(/C(=C(/C)c2ccc(Cl)cc2)c2ccc(OCCN3CCCC3)cc2)cc1"
measurement_name = "growth"
endpoint_value = "81.1% (inactive)"

[[record]]
compound = "COc1cc2oc(-c3cccc(NC(=O)c4cc(NC(=O)[C@H](C)N)ccc4Cl)c3)cc(=O)c2c(OC)c1OC"
measurement_name = "growth"
endpoint_value = "129% (inactive)"

[[record]]
compound = "COc1ccc(S(=O)(=O)n2cc(C=O)c3ccccc32)c(OC)c1"
measurement_name = "growth"
endpoint_value = "82.5% (inactive)"

[[record]]
compound = "Cc1cn(-c2cc(NC(=O)c3cncc(C#Cc4cnc5ccc(O[C@H]6CCOC6)nn45)c3)cc(C(F)(F)F)c2)cn1"
measurement_name = "growth"
endpoint_value = "97.1% (inactive)"

[[record]]
compound = "CC(C)c1nn(-c2ccccc2)c(N2CCCCC2)c1/C=N/NC(N)=S"
measurement_name = "growth"
endpoint_value = "106% (inactive)"

[[record]]
compound = "O=c1[nH]c(CNc2ccc(NCc3c(-c4ccccc4)no[n+]3[O-])cc2)nc2c1cnn2-c1ccccc1"
measurement_name = "growth"
endpoint_value = "60.6% (inactive)"

[[record]]
compound = "CN1C(=O)N(C)C2C1NN=c1s/c(=C\\c3ccccn3)c(=O)n12 (configuration not stated)"
measurement_name = "growth"
endpoint_value = "96.4% (inactive)"

[[record]]
compound = "CCCC(=O)NC(c1cccnc1)c1ccc2c(C)ccnc2c1O (configuration not stated)"
measurement_name = "growth"
endpoint_value = "5.9% (active)"

[[record]]
compound = "CCN1C/C(=N\\S(=O)(=O)c2ccccc2)N(CC)C1=S"
measurement_name = "growth"
endpoint_value = "97.6% (inactive)"

[[record]]
compound = "COc1ccc([C@H]2c3[nH]c4ccccc4c3C[C@@H]3C(=O)N(C4CCN(Cc5ccccc5)CC4)CC(=O)N23)c(OC)c1"
measurement_name = "growth"
endpoint_value = "94.5% (inactive)"

[[record]]
compound = "Cn1cc(-c2nn3cc(-c4ccncc4)nc3s2)c2cc(Cl)ccc21"
measurement_name = "growth"
endpoint_value = "89.1% (inactive)"

[[record]]
compound = "CCN(CC)CCN1C(=O)c2c(c3c4cccnc4[nH]c3c3ccc4ccccc4c23)C1=O"
measurement_name = "growth"
endpoint_value = "98.2% (inactive)"

[[record]]
compound = "CCOC(=O)c1c(NC(=O)c2cccc(C(F)(F)F)c2)sc2c(CN3CCN(C)CC3)c(O)ccc12"
measurement_name = "growth"
endpoint_value = "28.1% (inactive)"

[[record]]
compound = "CN(c1ccc(Br)cc1)S(=O)(=O)c1ccc(-c2cnc(C3CC3)o2)cc1"
measurement_name = "growth"
endpoint_value = "67.3% (inactive)"

[[record]]
compound = "CC(C)=CCc1c(O)c(CC=C(C)C)c2c(c1O)C(=O)C1=C[C@@H]3C[C@H]4C(C)(C)O[C@@](C/C=C(\\C)C(=O)O)(C3=O)[C@@]14O2"
measurement_name = "growth"
endpoint_value = "-38.2% (active)"


###

- System: SN12C renal
- experiment: NCI-60 one-dose screen, 48 h
- test-parameters: 10 µM unless noted
The panel holds about 83,000 compounds, 20% with a hit somewhere; the sample as a whole holds those more often. Active and inactive are the calls of the source. The calls were made as follows: active = growth percent below 10; inactive = the rest.
Outcome codes: label 1 (active), label 0 (inactive)

[[record]]
compound = "CNC(=O)c1cc(Oc2ccc3nc(NC(=O)c4cccc(C(F)(F)F)c4)sc3c2)ccn1"
label_value = "label 0"

[[record]]
compound = "CCNC(=O)Oc1ccc(/C(=C(/C)c2ccc(Cl)cc2)c2ccc(OCCN(C)C)cc2)cc1"
label_value = "label 0"

[[record]]
compound = "O=C(C[n+]1ccnc2ccccc21)c1ccc(O)c(O)c1"
label_value = "label 0"

[[record]]
compound = "N=c1c2cc(-c3ccccc3)oc2ncn1/N=C/c1ccccc1"
label_value = "label 0"

[[record]]
compound = "C#C[C@]1(O)CC[C@H]2[C@@H]3CC=C4c5sc(Nc6cc(OC)ccc6OC)nc5CC[C@]4(C)[C@H]3CC[C@@]21C"
label_value = "label 0"

[[record]]
compound = "CS(=O)(=O)c1nccc(-c2c(-c3ccc(F)c(OCc4ccc(F)cc4)c3)nc3sccn23)n1"
label_value = "label 0"

[[record]]
compound = "COc1ccc(-c2no[n+]([O-])c2Nc2ccccc2Br)cc1"
label_value = "label 0"

[[record]]
compound = "C=C(C)C(=O)O[C@H]1C[C@@]2(C)OC(=CC2=O)[C@H](C)[C@H](O)[C@H]2OC(=O)C(=C)[C@@H]21"
label_value = "label 0"

[[record]]
compound = "C/C=C/C=C1\\C[C@H]2CO[C@H](O2)C1=O"
label_value = "label 0"

[[record]]
compound = "COc1cc(C(=O)c2cc(C(C)=O)c3c4ccccc4ccn23)cc(OC)c1OC"
label_value = "label 0"

[[record]]
compound = "Oc1ccc(CSc2nnc(-c3ccncc3)o2)c2cccnc12"
label_value = "label 1"

[[record]]
compound = "CC(C)(C)OC(=O)N1CCN(S(=O)(=O)/N=C2\\NC(=O)NC2=C(Cl)Cl)CC1"
label_value = "label 0"

[[record]]
compound = "CC(C)(C)CC(C)(C)n1nnnc1C(Nc1ccccc1)c1cc2cccc3ccc4cccc1c4c32 (configuration not stated)"
label_value = "label 0"

[[record]]
compound = "COc1ccc(/C(C)=C(\\c2ccc(Cl)cc2)c2ccc(OCCN)cc2)cc1"
label_value = "label 0"

[[record]]
compound = "C#CCOc1ccc(C(Nc2cc(Cl)ccc2Cl)c2nnnn2C2CCCCC2)cc1 (configuration not stated)"
label_value = "label 0"

[[record]]
compound = "COc1ccc(C(=O)n2cc(C=O)c3ccccc32)cc1"
label_value = "label 0"

[[record]]
compound = "Clc1ccc(-c2nc3ccc(/C(=N\\N=C\\c4ccccc4)c4ccccc4)cc3[nH]2)cc1"
label_value = "label 0"

[[record]]
compound = "C=CCn1c(SCC(=O)Nc2cccc(C(=O)/C=C/c3ccccc3)c2)nc2ccccc2c1=O"
label_value = "label 0"

[[record]]
compound = "N#Cc1c(NC(=O)c2ccc(F)c(Cl)c2)sc2c1CCC(=O)C2"
label_value = "label 1"

[[record]]
compound = "Oc1ccc(CSc2nnc(-c3ccc(Cl)cc3)o2)c2cccnc12"
label_value = "label 0"

[[record]]
compound = "CC(=O)NC(C)(C)C(=O)N1CCC[C@H]1C(=O)NC(C)(C)C(=O)N[C@@H](C)C(=O)NC(C)(C)C(=O)N[C@@H](C)C(=O)N[C@@H](CCC(N)=O)C(=O)NC(C)(C)C(=O)N[C@H](C(=O)NC(C)(C)C(=O)NCC(=O)N[C@@H](CC(C)C)C(=O)NC(C)(C)C(=O)N1CCC[C@H]1C(=O)N[C@H](C(=O)NC(C)(C)C(=O)NC(C)(C)C(=O)N[C@@H](CCC(N)=O)C(=O)N[C@@H](CCC(N)=O)C(=O)N[C@H](CO)Cc1ccccc1)C(C)C)C(C)C"
label_value = "label 0"

[[record]]
compound = "c1ccc(-c2n(Cc3ccc4ccccc4c3)c3c4ccccc4c4ccccc4c3[n+]2Cc2ccc3ccccc3c2)cc1"
label_value = "label 1"

